test system: Hepatitis C virus; test: Antiviral activity against HCV by cell based replicon assay; type: functional, organism-based, Hepacivirus hominis
pEC50: −log10 of the molar value.
Measurement type: pEC50

| Line notation | pEC50 |
| --- | --- |
| Cc1ccc2c(c1)c(-c1ccc[nH]c1=O)c(C(=O)NS(=O)(=O)N(C)C)n2Cc1cc([N+](=O)[O-])ccc1F | 9.30 |

[1] Cc1ccc2c(c1)c(-c1ccc[nH]c1=O)c(C(=O)NS(C)(=O)=O)n2Cc1cc([N+](=O)[O-])ccc1F
[2] O=C(NS(=O)(=O)C1CC1)c1c(-c2ccc[nH]c2=O)c2cc(C(F)(F)F)ccc2n1Cc1cc([N+](=O)[O-])ccc1F
Q) Exercise: compare 1 and 2 ; which one has the greater pEC50? Select an item and report its label.
A) 1
(1: 9.00, 2: 8.70)
